Property: inhibition at 30 µM; scope: individual molecules
# measurementTarget: autotaxin (Homo sapiens, UniProt Q13822)
# assay: Autotaxin inhibitor screening assay (phosphodiesterase activity, p-nitrophenol cleaved from bis-(p-nitrophenyl) phosphate, absorbance 410 nm)
# Format: biochemical
# experimentalContext: pH 9, compound at 30 μM; BNPP 3 mM, pH 9.0, 37° C., 30 minutes; read-out: Inhibition

Consider the reported inhibition at 30 µM for these molecules:
1) O=C(NCCc1ccc(Cl)c(Cl)c1)c1ccc(CC2CCc3cc(O)ccc3C2=O)cc1 (centres unmarked) [Compound 60] :: 50 to 80%
2) CS(=O)(=O)c1ccc(COc2ccc3c(c2)C/C(=C\c2ccc(F)c(Cl)c2)C3=O)cc1 [Compound 126] :: < 50%

Input CNS(=O)(=O)c1ccc(COc2ccc3c(c2)C/C(=C\c2cc(Cl)cc(Cl)c2)C3=O)cc1 [Compound 123] . Output inhibition at 30 µM: < 50%

Input O=C1/C(=C/c2cccc(C(F)(F)F)c2)Cc2ccc(OCc3ccc(F)c(F)c3)cc21 [Compound 7] . Output inhibition at 30 µM: 50 to 80%

Input O=C(Nc1ccc2c(c1)C/C(=C\c1cccc(C(F)(F)F)c1)C2=O)OCc1ccccc1 [Compound 26] . Output inhibition at 30 µM: < 50%

Input O=C(Nc1ccc2c(c1)C/C(=C\c1ccc(C(F)(F)F)cc1)C2=O)OCc1ccccc1 [Compound 27] . Output inhibition at 30 µM: < 50%

Input O=C(O)c1ccc(COc2ccc3c(c2)C/C(=C\c2cc(Cl)cc(Cl)c2)C3O)cc1 (centres unmarked) [Compound 133] . Output inhibition at 30 µM: 50 to 80%

Input COC(=O)c1ccc(COc2ccc3c(c2)C/C(=C\c2cc(Cl)cc(Cl)c2)C3=O)cc1 [Compound 132] . Output inhibition at 30 µM: < 50%
